Experimental target: human TLR7 (Homo sapiens, UniProt Q9NYK1)
Sequence (Q9NYK1 27-1049): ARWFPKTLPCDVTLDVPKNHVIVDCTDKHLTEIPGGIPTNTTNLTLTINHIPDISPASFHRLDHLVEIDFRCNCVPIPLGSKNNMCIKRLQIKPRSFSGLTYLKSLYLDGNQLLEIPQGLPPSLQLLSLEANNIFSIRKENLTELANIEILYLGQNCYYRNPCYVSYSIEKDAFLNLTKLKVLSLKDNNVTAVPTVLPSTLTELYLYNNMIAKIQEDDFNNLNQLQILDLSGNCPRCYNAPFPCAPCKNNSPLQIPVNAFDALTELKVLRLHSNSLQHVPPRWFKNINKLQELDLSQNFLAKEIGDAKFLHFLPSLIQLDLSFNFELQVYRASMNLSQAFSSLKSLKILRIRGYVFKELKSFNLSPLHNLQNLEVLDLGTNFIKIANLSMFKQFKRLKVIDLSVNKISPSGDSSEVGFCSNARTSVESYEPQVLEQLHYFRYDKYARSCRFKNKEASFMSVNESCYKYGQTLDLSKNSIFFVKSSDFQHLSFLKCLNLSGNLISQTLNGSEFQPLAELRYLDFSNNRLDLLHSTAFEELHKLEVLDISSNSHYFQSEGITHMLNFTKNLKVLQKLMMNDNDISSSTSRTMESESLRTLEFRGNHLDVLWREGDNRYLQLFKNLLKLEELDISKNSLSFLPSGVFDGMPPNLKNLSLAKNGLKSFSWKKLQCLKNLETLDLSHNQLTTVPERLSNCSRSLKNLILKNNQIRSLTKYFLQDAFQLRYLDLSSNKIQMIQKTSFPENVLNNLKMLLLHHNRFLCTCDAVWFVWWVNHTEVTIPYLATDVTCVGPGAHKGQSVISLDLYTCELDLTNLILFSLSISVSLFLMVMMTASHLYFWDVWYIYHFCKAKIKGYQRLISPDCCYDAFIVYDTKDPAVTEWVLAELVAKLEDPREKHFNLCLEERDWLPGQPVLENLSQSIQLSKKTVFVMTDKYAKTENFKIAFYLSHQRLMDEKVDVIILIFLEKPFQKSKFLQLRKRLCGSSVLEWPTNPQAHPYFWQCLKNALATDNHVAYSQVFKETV
Assay remarks: Human TLR7 agonist activity assay (HEK-Blue TLR7 SEAP reporter)
Assay conditions: HEK-Blue TLR7 cells, 18 h treatment, average where assay was performed multiple times, read-out: hTLR7 Agonism EC50
# reported EC50; entries follow
Lab note: write values as number then unit, every time.

Recorded EC50, per entry:
INSERT INTO assay_data (molecule, reported_measurement) VALUES
  ('CCC[C@@H](CO)Nc1nc(N)nc2cnn(Cc3ccc(C(=O)NC4CCN(C)CC4)cc3OC)c12', '5000 nM'),
  ('CCCCNc1nc(N)nc2cnn(Cc3ccc(C(=O)N4CCC(CCO)CC4)cc3OC)c12', '41.6 nM'),
  ('COc1cc(C(=O)N2CCN(C)CC2)ccc1Cn1ncc2nc(N)nc(NCc3noc(C)n3)c21', '95.1 nM');

GET /values?readout=EC50&system=human TLR7 (Homo sapiens, UniProt Q9NYK1)&item= COc1cc(C(=O)N2CCN(CCO)CC2)ccc1Cn1ncc2nc(N)nc(NCc3cc(C)on3)c21
505 nM

Same question, COc1cc(C(=O)N2CCN(CCO)CC2)ccc1Cn1ncc2nc(N)nc(NCc3noc(C)n3)c21 this time
1870 nM

Same question, CCC1CC(CNc2nc(N)nc3cnn(Cc4ccc(C(=O)NC5CCN(C)CC5)cc4OC)c23)C1 (centres unmarked) this time
508 nM
